- target.entity: Mouse Serum Albumin (mouse) (UniProt P07724)
- test.method.notes: BLI (Octet Red), MSA on sensor tips, VH domain in solution, 1:1 fit
In this section we review reported kon values for a set of binders.
Output spec: scalar in M⁻¹ s⁻¹, unitless text.

Which kon is reported for this binder? VH-3C2 (protein) VH: QVQLQQSGPGLVKPSQTLSLTCAISGDSVSSKSAAWNWIRQSPSRGLEWLGRTYYRSKWYNDYVVSLRSRITVSPDTSKNQFSLQLNSVTPEDTAMYYCARTRGHIDLWGRGTLVTVSSSASGAGS
6870

// same read-out, input: VH-3E11 (protein) VH: QVQLQQSGPGLVKPSQTLSLTCAISGDSVSGNSAAWNWIRQSPSRGLEWLGRTYYRSKWYIGYAASLQSRLAINADTSKNQLSLRLSSVTPEDTAVYYCVGRHYSGHSGAFDTWGHGTMVTVSSSASGAGS
5750

// same read-out, input: VH-3B11 (protein) VH: EVQLVQSGAEVKKPGESLKISCKGSGYSFTSYWIGWVRQMPGKGLEWMGIVYPGDSDTRYSPSFQGQVTISAGKSISTAYLQWSSLKASDTAMYYCARPSMGATTWISAFDIWGQGTTVTVSSSASGAGS
8200

// same read-out, input: VH-1C5 (protein) VH: QVQLQQSGPGLVKPSQTLSLTCAISGDSVSSNSAAWNWIRQSPSRGLEWLGRTYYRSKWYNDYAVSVKSRITINPDTSKNQFSLQLNSVTPEDTAVYYCARTPSTGTLDCWGRGTLVTVSSSASGAGS
8570

// same read-out, input: VH-4D6 (protein) VH: EVQLVQSGAEVKKPGESLKISCKGSGYSFTSYWIGWVRQMPGKGLEWMGIIYPGDSDTRYSPSFQGQVTISADKSISTAYLQWSSLKASDTAMYYCARLDCSGGSCYYYYYGMDVWGQGTTVTVSSSASGAGS
8340
